This collection of values is drawn from patent US20220049017A1.

Molecular target: human PCSK9 reference (human, UniProt Q8NBP7 31-692)
Assay: ProteOn SPR, captured antibody, pH 7.6;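 note: antibodies captured via anti-human Fc on a GLC sensor chip, PCSK9 binding sensorgrams fitted to a 1:1 Langmuir model giving on and off rates, with KD derived from them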
quantityName: pKd
# pKd: negative log10 of molar concentration; output just the value

Specify pKd for CL-148219 QLT mutant (antibody, V domains shown) VH: QVHLQESGPGLVKPSETLSLTCTVSGGSISSYYWSWIRQYPGKGLEWIGYISYSGSSNYNPSLKRRVTISRDTSKNQFSLQLTSVIAADTAVYYCARNLMIRGAYGMDVWGQGTTVTVSS VL: DTVMTQSPLSLPVTPGEPASISCRSSQSLLHSNGYNYLDWYLQKAGQSPQLLIYLGSNRASGVPDRFSGSVSGTDFTLKISRVEAEDVGIYYCMQALQTPFTFGPGTKVDIK and stop.
9.57
